All figures here come from patent US20180037631A1.

target: mouse EGFR (mouse, UniProt Q01279 25-647, limits assumed); test: SPR Biacore
MEASURE NAME: Kd (nM)
Express it in nM; write the number only.

Query :: Note down Kd recorded for I1-GS10-E105 pegylated, His-tagged (designed binder, 40 kDa branched PEG on the Cys of the C-terminal Cys tail) MGVSDVPRDLEVVAATPTSLLISWSARLKVARYYRITYGETGGNSPVQEFTVPKNVYTATISGLKPGVDYTITVYAVTRFRDYQPISINYRTEIDKGSGSGSGSGSGSGSGSGSGSVSDVPRDLEVVAATPTSLLISWDAPTSRYQYYRITYGETGGNSPVQEFTVPGGLSTATISGLKPGVDYTITVYAVTDYKPHADGPHTYHESPISINYRTEIDKPCQHHHHHH
Result :: 2.7
